# Tested on: L1210 leukemia ip in BDF1 mice, survival T/C
# assay_summary: NCI In Vivo Anticancer Drug Screen. Data for tumor model L1210 Leukemia (intraperitoneal) in B6D2F1 (BDF1) mice
# assay_conditions: endpoint: mean survival time; dose: 12.5 mg/kg/injection; schedule: Q04DX003 (ip); vehicle: Klucel (hydroxypropylcellulose) (HPC); higher = longer survival
Inconclusive results and toxic doses are left out.
measurement_kind: T/C

>>> recorded_measurement("CNC(=O)C(=O)NCCCN1CC1")
"114 % of control"
>>> recorded_measurement("CC(=O)[O][Hg][c]1s[c]([Hg][O]C(C)=O)[c]([Hg][O]C(C)=O)[c]1[Hg][O]C(C)=O")
"102 % of control"
>>> recorded_measurement("C[n+]1ccc(/C=C/c2c(Cl)cccc2Cl)c2ccccc21")
"93 % of control"
>>> recorded_measurement("CC(C)=C1C2C=CC1C1C(=O)OC(=O)C21 (stereo unspecified)")
"107 % of control"
>>> recorded_measurement("CC1=C(N2CC2)C(=O)c2ccccc2C1=O")
"98 % of control"

Request: Data request, read-out T/C, for COc1ccccc1N1CCN(CCc2c[nH]c3cc4c(cc23)OCO4)CC1
Result: 94 % of control

====

# Test system: L1210 leukemia ip in BDF1 mice, survival T/C
# assay_summary: NCI In Vivo Anticancer Drug Screen. Data for tumor model L1210 Leukemia (intraperitoneal) in B6D2F1 (BDF1) mice
# assay_conditions: endpoint: mean survival time; dose: 100.0 mg/kg/injection; schedule: Q01DX001 (ip); vehicle: carboxymethylcellulose (CMC); higher = longer survival
Inconclusive results and toxic doses are left out.
measurement_kind: T/C

>>> recorded_measurement("N#CC(Nc1c(N)nc(-c2ccccc2)nc1N)c1ccc(N(CCCl)CCCl)cc1 (stereo not drawn)")
"115 % of control"
>>> recorded_measurement("O=C(Nc1ccccc1)c1cccnc1")
"94 % of control"
>>> recorded_measurement("CCN(CC)c1ccc(N=Nc2ccccc2)cc1")
"86 % of control"
>>> recorded_measurement("C[N+]1(CCCl)CC[N+](C)(CCCl)CC1 (stereo not drawn)")
"101 % of control"

Give T/C for each listed item.
1. CCC1CC2c3cc(OC)c(OC)cc3CCN2CC1(O)Cc1nccc2c1CCCC2 (stereo not drawn)
2. CN(C)N=Nc1ccccc1
3. Cc1cc(NC(=O)Nc2ccc(F)cc2)no1
4. CCOC(=O)c1cc(Cl)c2c(ccc3ccccc32)n1

Result:
104 % of control
93 % of control
100 % of control
115 % of control

====

# Test system: L1210 leukemia ip in BDF1 mice, survival T/C
# assay_summary: NCI In Vivo Anticancer Drug Screen. Data for tumor model L1210 Leukemia (intraperitoneal) in B6D2F1 (BDF1) mice
# assay_conditions: endpoint: mean survival time; dose: 100.0 mg/kg/injection; schedule: Q01DX005 (ip); vehicle: saline; higher = longer survival
Toxic doses and inconclusive results are not listed.
Record form. Attribute: T/C. Fill in for each entry.

>>> recorded_measurement("Cc1cn(C2CC(O)C(COC(c3ccccc3)(c3ccccc3)c3ccccc3)O2)c(=O)[nH]c1=O (stereo not given)")
"104 % of control"
>>> recorded_measurement("COc1ccc(CN2CC(C)N(N)C(C)C2)cc1 (stereo not given)")
"98 % of control"
>>> recorded_measurement("CC(=O)OC1C(OS(=O)(=O)c2ccc(C)cc2)C(COC(=O)c2ccccc2)OC1n1cnc2c(NC(=O)c3ccccc3)ncnc21 (stereo not given)")
"97 % of control"
>>> recorded_measurement("OCC1OC(n2cnc3c2ncn2ccnc32)C(O)C1O (stereo not given)")
"101 % of control"

Request: T/C of N/C(=N\O)c1ncn(C2OC(CO)C(O)C2O)c1N (stereo not given) on L1210 leukemia ip in BDF1 mice, survival T/C?
Result: 103 % of control
